Target Entity: rat cortical α2 receptor
Measurement Description: Test C: [3H]Dihydroergocryptine displacement from rat cortical α2 receptor binding sites
Reported Conditions: rat cortical membranes, [3H]dihydroergocryptine 0.45 nM, 25° C., 45 minutes in the dark; approximately 80% of binding is α2
Method: Test C--[^3 H]Dihydroergocryptine displacement from rat cortical α2 *receptor binding sites (a) Radioligand--[9,10(n)-^3 H]9,10-Dihydroergocryptine (Amersham International, TRK 555, 17.5 Ci/mmole) was used as a 1 μCi/1 μl solution and this stock solution was diluted 1/6250 in assay buffer and 0.1 ml volumes of this were added to 2 ml binding assays. =0.45 nM and =0.016 μCi/binding assay […]
pIC50: −log10 of the molar value. Counter-ions that a name gives are not always drawn.

# Molecule, pIC50
data = [
    ("O=c1c2c(sc3ccccc13)CCN(CCC1CCCCC1)C2", 6.72),
    ("CC(C)CN1CCc2sc3ccccc3c(=O)c2C1 [Example 19, hydrochloride]", 6.82),
    ("O=c1c2c(sc3ccccc13)CCN(CC1=CCCCC1)C2", 6.82),
    ("O=c1c2c(sc3c1ccc1ccccc13)CCNC2 [Example 8, hydrochloride]", 6.00),
    ("Cc1ccc2sc3c(c(=O)c2c1)CNCC3 [Example 2, hydrochloride]", 5.48),
    ("O=c1c2c(sc3ccccc13)CCN(CCCn1c(=O)[nH]c3ccccc31)C2", 6.82),
    ("COc1ccc2c(=O)c3c(sc2c1)CCNC3 [Example 3, hydrochloride]", 5.37),
    ("O=c1c2c(sc3ccccc13)CCN(CCC1OCCCO1)C2", 6.19),
    ("O=c1c2c(sc3ccccc13)CCN(CC1CC1)C2", 7.22),
    ("CC(C)CCN1CCc2sc3ccccc3c(=O)c2C1", 6.77),
]

====

Target Entity: rat cortical α2 receptor
Measurement Description: Test C: [3H]Dihydroergocryptine displacement from rat cortical α2 receptor binding sites
Reported Conditions: rat cortical membranes, [3H]dihydroergocryptine 0.45 nM, 25° C., 45 minutes in the dark; approximately 80% of binding is α2
pIC50: −log10 of the molar value. Counter-ions that a name gives are not always drawn.
This section presents molecules with their documented pIC50 values.

# Molecule, Readout Relation, pIC50
rows = [
    ("O=c1c2c(sc3ccccc13)CCN(C1CCCCC1)C2", "=", 6.22),
    ("O=c1c2c(sc3ccccc13)CCN(CC1CCCCC1)C2 [Example 20, hydrochloride]", "=", 6.64),
    ("O=c1c2c(sc3ccccc13)CCN(CC1CCCCCC1)C2", "=", 6.49),
    ("O=c1c2c(sc3ccc(Cl)cc13)CCNC2 [Example 7, hydrochloride]", "=", 5.66),
    ("O=C(CCCN1CCc2sc3ccccc3c(=O)c2C1)c1ccc(F)cc1 [Example 16, hydrochloride]", "=", 7.70),
    ("O=c1c2c(sc3ccc(F)cc13)CCN(CC1CCCCC1)C2 [Example 24, hydrochloride]", "<", 5.00),
    ("C=CCN1CCc2sc3ccccc3c(=O)c2C1", "=", 6.41),
    ("NC(=O)CCN1CCc2sc3ccccc3c(=O)c2C1 [Example 23, hydrochloride]", "=", 5.52),
    ("O=c1c2c(sc3ccc4ccccc4c13)CCNC2 [Example 5, hydrochloride]", "=", 5.80),
    ("CCCCN1CCc2sc3ccccc3c(=O)c2C1 [Example 14, hydrochloride]", "=", 6.96),
    ("CCCCCCN1CCc2sc3ccccc3c(=O)c2C1 [Example 18, hydrochloride]", "=", 7.10),
    ("O=c1c2c(sc3ccccc13)CCN(CC1CCC1)C2", "=", 7.30),
    ("O=c1c2c(sc3ccccc13)CCNC2 [Example 1, hydrochloride]", "=", 6.22),
    ("O=c1c2c(sc3ccccc13)CCN(CC1CCCC1)C2", "=", 7.30),
    ("COc1ccc2sc3c(c(=O)c2c1)CN(CC1CCCCC1)CC3 [Example 38, hydrochloride]", "=", 5.66),
    ("CCCN1CCc2sc3ccccc3c(=O)c2C1 [Example 11, hydrochloride]", "=", 6.82),
    ("O=c1c2c(sc3ccccc13)CCN(CCc1ccccc1)C2", "=", 6.68),
]

====

Target Entity: rat striatal dopamine receptor (Rattus norvegicus)
Sequence (P61169 whole entry): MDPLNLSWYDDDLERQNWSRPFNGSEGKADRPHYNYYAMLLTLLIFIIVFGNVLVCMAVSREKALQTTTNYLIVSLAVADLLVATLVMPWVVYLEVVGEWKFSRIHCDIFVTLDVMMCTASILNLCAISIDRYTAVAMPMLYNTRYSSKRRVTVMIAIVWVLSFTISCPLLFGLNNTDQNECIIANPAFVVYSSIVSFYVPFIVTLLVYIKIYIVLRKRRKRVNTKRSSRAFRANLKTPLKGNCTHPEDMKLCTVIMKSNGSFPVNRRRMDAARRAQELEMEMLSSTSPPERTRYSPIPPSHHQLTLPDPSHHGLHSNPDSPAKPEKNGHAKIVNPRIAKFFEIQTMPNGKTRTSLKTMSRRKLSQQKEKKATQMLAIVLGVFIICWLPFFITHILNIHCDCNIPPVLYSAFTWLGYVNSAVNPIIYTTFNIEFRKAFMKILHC
pIC50: −log10 of the molar value. Counter-ions that a name gives are not always drawn.
Rule: Satisfied for pIC50 not less than 6, Not satisfied for anything less.

# Compound, Discrete Label
rows = [
    ("NC(=O)CCN1CCc2sc3ccccc3c(=O)c2C1 [Example 23, hydrochloride]", "Not satisfied"),
    ("O=c1c2c(sc3ccccc13)CCN(CCCn1c(=O)[nH]c3ccccc31)C2", "Satisfied"),
    ("O=c1c2c(sc3ccc4ccccc4c13)CCNC2 [Example 5, hydrochloride]", "Not satisfied"),
    ("O=c1c2c(sc3ccccc13)CCN(CC1CCCCCC1)C2", "Satisfied"),
    ("Cc1ccc2sc3c(c(=O)c2c1)CNCC3 [Example 2, hydrochloride]", "Not satisfied"),
    ("O=c1c2c(sc3ccc(Cl)cc13)CCNC2 [Example 7, hydrochloride]", "Not satisfied"),
]

====

Target Entity: rat cortical α2 receptor
Measurement Description: Test C: [3H]Dihydroergocryptine displacement from rat cortical α2 receptor binding sites
Reported Conditions: rat cortical membranes, [3H]dihydroergocryptine 0.45 nM, 25° C., 45 minutes in the dark; approximately 80% of binding is α2
pIC50: −log10 of the molar value. Structures can show the parent of a compound that is named as a salt.
Rule: y for pIC50 not less than 6, n for anything less.

# Molecule, Discrete Label
data = [
    ("CCCCCN1CCc2sc3ccccc3c(=O)c2C1 [Example 17, hydrochloride]", "y"),
    ("O=C(CN1CCc2sc3ccccc3c(=O)c2C1)c1ccccc1 [Example 33]", "n"),
    ("O=c1c2c(sc3ccccc13)CCN(Cc1ccccc1)C2 [Example 6, hydrochloride]", "y"),
    ("O=c1c2c(sc3ccccc13)CCN(CCO)C2 [Example 35]", "n"),
    ("COc1ccc2sc3c(c(=O)c2c1)CNCC3 [Example 4, hydrochloride]", "n"),
    ("N#CCCN1CCc2sc3ccccc3c(=O)c2C1 [Example 22, hydrochloride]", "n"),
    ("CCN1CCc2sc3ccccc3c(=O)c2C1 [Example 13, hydrochloride]", "y"),
]

====

Target Entity: rat cortical α1 receptor
Measurement Description: Test B: [3H]Prazosin displacement from rat cortical α1 receptor binding sites
Reported Conditions: rat cerebral cortex membranes, [3H]prazosin 0.1 nM, 25° C., 30 minutes, pH 7.5
Counter-ions that a name gives are not always drawn.
Recorded Metric: log10 IC50 (log10 of the value in nM)

# Compound, Target Entity, Recorded Metric, Reported Result
measured = [
    ("O=c1c2c(sc3ccccc13)CCN(CC1CCCCCC1)C2", "rat cortical α1 receptor", "log10 IC50", 3.45),
    ("O=c1c2c(sc3ccccc13)CCN(C1CCCCC1)C2", "rat cortical α1 receptor", "log10 IC50", 3.20),
    ("O=c1c2c(sc3ccccc13)CCN(CC1CCCC1)C2", "rat cortical α1 receptor", "log10 IC50", 2.83),
    ("O=c1c2c(sc3ccccc13)CCN(CCO)C2", "rat cortical α1 receptor", "log10 IC50", 4.00),
    ("C=CCN1CCc2sc3ccccc3c(=O)c2C1", "rat cortical α1 receptor", "log10 IC50", 3.60),
    ("O=c1c2c(sc3ccc4ccccc4c13)CCNC2 [Example 5, hydrochloride]", "rat cortical α1 receptor", "log10 IC50", 3.23),
    ("CCCCN1CCc2sc3ccccc3c(=O)c2C1 [Example 14, hydrochloride]", "rat cortical α1 receptor", "log10 IC50", 2.95),
    ("O=c1c2c(sc3ccccc13)CCN(CC1CCCCC1)C2 [Example 20, hydrochloride]", "rat cortical α1 receptor", "log10 IC50", 3.43),
    ("O=c1c2c(sc3ccccc13)CCN(Cc1ccccc1)C2 [Example 6, hydrochloride]", "rat cortical α1 receptor", "log10 IC50", 3.60),
    ("O=c1c2c(sc3ccccc13)CCN(CC1CCC1)C2", "rat cortical α1 receptor", "log10 IC50", 2.84),
    ("CC(C)CCN1CCc2sc3ccccc3c(=O)c2C1", "rat cortical α1 receptor", "log10 IC50", 2.83),
    ("O=c1c2c(sc3ccccc13)CCN(CC1CC1)C2", "rat cortical α1 receptor", "log10 IC50", 3.09),
    ("O=c1c2c(sc3ccccc13)CCN(CCC1CCCCC1)C2", "rat cortical α1 receptor", "log10 IC50", 3.06),
    ("O=c1c2c(sc3ccccc13)CCN(CCC1OCCCO1)C2", "rat cortical α1 receptor", "log10 IC50", 3.53),
    ("COc1ccc2sc3c(c(=O)c2c1)CNCC3 [Example 4, hydrochloride]", "rat cortical α1 receptor", "log10 IC50", 3.89),
    ("CCOC(=O)CCN1CCc2sc3ccccc3c(=O)c2C1 [Example 21, hydrochloride]", "rat cortical α1 receptor", "log10 IC50", 3.85),
]
